inhibition listing for selected compounds.
Assay: growth suppression of yeast trafficking mutant, preliminary HTS, modulators of trafficking downstream of Golgi apparatus project, 1536-format plate, OD 615 nm (AID 637)
Settings: yeast transport mutant growth, absorbance 615 nm, 18 h; stronger effect = higher value
REPORTED METRIC: inhibition (%)

COMPOUND | MEASURED
CCOc1ccc(-c2nnc(N)s2)cc1 | -1.29
C/C(=C\c1cc(C(=O)O)c(C)o1)CO | -0.33
CCC(=O)N(Cc1cc2c(C)ccc(C)c2[nH]c1=O)C1CCCCC1 | 0.32
CCOc1ccc(-n2c(=O)cc(N3CCN(c4ccccc4)CC3)[nH]c2=O)cc1 | 6.07
CC(=O)C1=C(C)NC(C)=C(C(C)=O)C1c1cccs1 | -4
O=C(O)CC1SC(=Nc2cccc(C(F)(F)F)c2)NC1=O (stereo unspecified) | 1.29
Cc1cc(NC(=O)c2cc3ccccc3o2)cc(C)c1OCC(=O)N1CCOCC1 | -1.8
O=C(O)[C@@H]1CCCN1c1ncnc2sc3c(c12)CCC3 | 0.32
O=C(c1ccc(Cl)cc1)C1CCN(C(=O)NC2CCCCC2)CC1 | -7.26
CN(CC(=O)Nc1ccc2c(c1)OCCO2)S(=O)(=O)c1ccc(Br)s1 | -10.8
CCSc1nnc(NC(=O)c2nn(C(C)C)c(=O)c3ccccc23)s1 | -2

###

// reported viability for each item listed
Assay: reducers of endogenous Her2 protein level, primary screen, SKBR3 breast tumor cells, AlphaScreen, ATP viability (AID 461);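 further: percent of carrier control wells set as 100% viability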
Conditions: 18-24 h, measured here: SKBR3 viability, ATP luminescence, at 10 µM
REPORTED METRIC: viability (%)

COMPOUND | MEASURED
c1cc(CNc2ccc3c(c2)OCO3)ccn1 | 80
CCOC(=O)C(C)On1c(SC(C)C(=O)OCC)nc2ccccc2c1=O (stereo unspecified) | 131
O=C(O)CN(c1ccccc1)C1SC(=O)NC1=O (stereo unspecified) | 85.5
NC(=O)CCS(=O)(=O)CCN1CCCCC1 | 93.5
CC(C)(C)C(=O)Oc1cc(N)n(S(=O)(=O)c2ccccc2)n1 | 93.5
CC(Oc1ccc(Cl)cc1Cl)c1nc(-c2ccc(NC(=O)c3cccnc3)cc2)no1 (stereo unspecified) | 93.5
COc1ccc(NC(=O)c2cc(C)on2)cc1OC | 110
CCOc1ccccc1N(C(=O)Cn1nnnc1-c1ccc(C)o1)C(CC)C(=O)NC(C)(C)C (stereo unspecified) | 88.5
CCc1nn2c(N3CCOCC3)cc(C)nc2c1-c1ccc(F)cc1 | 92
O=C(c1ccco1)N1CCN(C(=O)c2cc3c(s2)-c2ccccc2OC3)CC1 | 91
COCCN1CCN(c2c(C)c(C)nc3cc(-c4cccc(OC)c4)nn23)CC1 | 100
COc1cccc(N2CCN(Cc3nc(N)nc(Nc4ccccc4OC)n3)CC2)c1 | 124
Cc1ccc2cc(CN(CC3CCCO3)S(=O)(=O)c3ccc4c(c3)OCCO4)c(=O)[nH]c2c1C (stereo unspecified) | 86.5
Cc1nn(C(=O)c2cc3sccc3[nH]2)c(C)c1C | 95
CC(c1ccccc1)N1C(=O)c2ccc(C(=O)NCc3ccco3)cc2C1=O (stereo unspecified) | 104
Clc1ccc(OCc2nc(-c3ccccn3)no2)c(Br)c1 | 82.5
C=C(Cl)COC(=O)[C@H]1C2C=CC(C2)C1C(=O)O (stereo partly specified) | 99.5
Cc1cccc(Nc2nc3c(c(=O)n(C)c(=O)n3C)n2Cc2ccccc2)c1 | 122
O=C(Nc1nnc(COc2ccc(F)cc2)s1)c1cccs1 | 107
CCOc1ccccc1N1CCN(c2nc(N)c(C#N)c(CC#N)c2C#N)CC1 | 108
Cc1cc(C(=O)Nc2ccccc2C#N)n(-c2ccccc2)n1 | 97.5
Cc1ccc(Nc2cc(C)nc3ncnn23)c(Cl)c1 | 85
Cc1ccnc(NC(=O)CCC(=O)N(CC(=O)NC(C)(C)C)C2CCCC2)c1 | 108
CN(c1ccccc1)S(=O)(=O)c1ccc(C(=O)OCC(=O)N2CCOCC2)cc1 | 106
c1ccc(-c2nnc(OCCN3CCOCC3)c3ccccc23)cc1 | 112
CCOC(=O)Cn1c(CN2CCN(c3cccc(Cl)c3)CC2)nc2c1c(=O)[nH]c(=O)n2C | 92.5
COCc1ccccc1Cn1cnc2c1c(=O)n(C)c(=O)n2C | 99
COC(=O)c1cc(Br)c(=O)n(CCN2CCOCC2)c1 | 102
CCCCn1nnc(NC(=O)Cc2ccc(Cl)cc2)n1 | 112
O=C(NCc1ccco1)C1CC(=O)N(c2ccc(F)cc2)C1 (stereo unspecified) | 96.5
O=C(COC(=O)c1ccccc1O)Nc1ccc(OC(F)F)cc1 | 78
Cc1cccn2c(=O)c3cc(C(=O)N4CCCc5ccccc54)n(C)c3nc12 | 86.5
Cc1csc(NC(=O)c2ccco2)n1 | 102
O=C(N1CCCCCC1)N1CCN(C(=O)N2CCOCC2)CC1 | 105
O=C(O)C1CC=CCC1C(=O)Nc1cc(Cl)ccc1Cl (stereo unspecified) | 86
Cc1cccc2sc(NC(=O)Cn3cccc3)nc12 | 87
CCOCCn1cnc2sc(C(=O)NCC(=O)OCC)c(C)c2c1=O | 95.5
O=S(=O)(c1ccc2nc(Cc3cccc(C(F)(F)F)c3)[nH]c2c1)N1CCOCC1 | 104
CCOC(=O)CN1CC23C=CC(O2)C(C(=O)Nc2ccc(OC)cc2OC)C3C1=O (stereo unspecified) | 99
Cc1cc(C)n(-c2cc(N3CCOCC3)nc(-c3ccccc3)n2)n1 | 85
COc1cccc(C2=NOC(C(=O)Nc3ccc(C(C)=O)cc3)C2)c1 (stereo unspecified) | 96
COc1ccc(C2=NOC(C(=O)NCCCN3CCOCC3)C2)cc1 (stereo unspecified) | 109
O=C(c1ccc(Cl)cc1)N(Cc1cccs1)C1CCS(=O)(=O)C1 (stereo unspecified) | 100
Cc1ccc2c(c1C)NC(C)CC2C (stereo unspecified) | 100
O=C(CCCc1cccs1)Nc1nc2c(s1)CCCC2 | 86.5
CC(C)OC(=O)CSc1nnc(Cc2ccccc2)n1Cc1ccco1 | 92.5

###

Test: growth suppression of yeast trafficking mutant, preliminary HTS, modulators of trafficking downstream of Golgi apparatus project, 1536-format plate, OD 615 nm (AID 637)
Conditions: yeast transport mutant growth, absorbance 615 nm, 18 h; stronger effect = higher value

MOLECULE | inhibition [%]
CCn1cc(S(=O)(=O)CC(=O)Nc2ccc(OC)cc2)c2ccccc21 | 0
N#CCCCN1C(=O)C(O)(CC(=O)c2ccc3c(c2)OCCO3)c2ccccc21 (stereo unspecified) | -9.03
Fc1ccc(C(c2nnnn2Cc2ccco2)N2CCN(C3CCCCC3)CC2)cc1 (stereo unspecified) | 21.9
Cc1noc(C)c1S(=O)(=O)N1CCC(C(=O)Nc2ccccn2)CC1 | 0.48
CCn1cc(C(=O)N=c2sc3ccccc3n2C)c(=O)c2ccc(C)nc21 | -2.83
COC(=O)CCCCCNc1ccc(C(=O)OC)cc1N | -6.5

###

Assay: reducers of endogenous Her2 protein level, primary screen, SKBR3 breast tumor cells, AlphaScreen, ATP viability (AID 461);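 further: percent of carrier control wells set as 100% viability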
Details: 18-24 h, measured here: SKBR3 viability, ATP luminescence, at 10 µM
Recorded measurements of viability, one per entry
REPORTED METRIC: viability (%)

COMPOUND | UNIT ABBREVIATION | MEASURED
Cc1cccc(NC(=O)Cn2c(=O)n(C)c3ccccc32)c1 | % | 100
Cc1ccc(N=C2NC(=O)CS2)c(C)c1 | % | 71
Cc1oc(-c2ccccc2F)nc1CS(=O)(=O)CC(=O)N1CCN(Cc2ccccc2)CC1 | % | 77.5
CC(C)CNC(=O)c1ccccc1NC(=O)c1ccc(CN2CCOCC2)cc1 | % | 92.5
Cc1ccc(C(C(=O)NC(C)(C)C)N(C(=O)c2csnn2)c2cccc(F)c2)o1 (configuration not stated) | % | 83.5
O=C(COC(=O)c1ccc(S(=O)(=O)Nc2ccccc2)cc1)NCCN1C(=O)CSC1=O | % | 107
COc1ccc(Cc2nc(-c3ccc(NC(=O)c4cccnc4)cc3)no2)cc1 | % | 109
COc1ccccc1-c1nnc2sc(-c3ccc(N(C)C)cc3)nn12 | % | 79.5
N[C@@H](Cc1ccccc1)c1nnc2sc(SCc3ccccc3)nn12 | % | 90
CC(=O)NC(Cc1c[nH]c2ccccc12)C(=O)OCC(=O)Nc1cc(C)on1 (configuration not stated) | % | 91.5
CCCNc1nc2c(c(=O)n(C)c(=O)n2C)n1Cc1cccc(C)c1 | % | 87.5
COc1ccc(C(C(C(=O)c2ccco2)N2CCOCC2)N2CCOCC2)cc1 (configuration not stated) | % | 97
Cc1cccc(NC(=O)c2cc3n(n2)C(C(F)(F)F)CC(c2ccc4c(c2)OCO4)N3)c1 (configuration not stated) | % | 113
COc1ccc(OC)c(C(=O)COC(=O)c2cc(C)oc2C)c1 | % | 112
Cc1cccc(C(=O)N2CCC(n3nnc4cc(F)ccc43)CC2)c1 | % | 95
Cn1nnnc1SCSc1nnnn1C | % | 84
COc1cc(S(=O)(=O)n2nnc3ccccc32)c(OC)cc1Cl | % | 96
CCCOc1ccc(C2c3c(oc4ccccc4c3=O)C(=O)N2CCCN2CCOCC2)cc1 (configuration not stated) | % | 84.5
Cc1ccc(S(=O)(=O)NC(=O)c2cc(C)n(CCCn3ccnc3)c2C)cc1 | % | 101
CCNC(=O)N(C(=O)NCC)n1c(C)nnc1C | % | 100
COc1ccc(OC)c(C2C3=C(CCCC3=O)Nc3c2c(=O)n(C)c(=O)n3C)c1 (configuration not stated) | % | 106
CN(C)c1ccc(/C(=N\O)c2ccccc2)cc1 | % | 98.5
